Listed compounds paired with reported drug-induced phospholipidosis
# Tested on: A549-ACE2
# assay.text: drug-induced phospholipidosis relative to tamoxifen; higher = more phospholipidosis
# test.context: 3.33333 µM; 48 h
Answer with a number only, understood to be in %.

> print(dat)
                  compound.structure.string  unit.label  readout.number
1  CCN1CCN(c2ccc(Nc3cc(N(C)C(=O)Nc4c(Cl)c(OC)cc(OC)c4Cl)ncn3)cc2)CC1           %           -2.05
2  Cn1nc(C(C)(C)C)cc1C(=O)N[C@@H](Cc1cccc(Cl)c1)C(=O)NCC#N           %             8.4

Which drug-induced phospholipidosis is listed for Cc1nc(Nc2cnn(C3CCNCC3)c2)nc2c1N(C)C(=O)c1cc3ccccc3cc1N2C ?
41.5

Give the measured drug-induced phospholipidosis of CC(C)c1ccc(C(=O)c2cccs2)c(SCCCCCCCCN(C)C)n1 .
79.5

Fill blank: measured drug-induced phospholipidosis of the compound COc1cc(N2CCN(C)CC2)ccc1Nc1nccc(-c2cn(C)c3cnccc23)n1 is ____.
-2.09

----------
Reported cell viability values for a set of compounds
# Test system: U2OS
# assay.text: cell viability relative to DMSO; higher = less toxic
# test.context: 72 h; 10 nM
Report only the number, with the unit % understood.

Answered examples (5):
> print(dat)
                                   compound   quantity.name  readout.number
1  CCC(=O)O[C@]1(C(=O)CO)CC[C@H]2[C@@H]3CCC4=CC(=O)CC[C@]4(C)[C@H]3CC[C@@]21C  cell viability             104
2  O=C(O)c1ccc2c(c1)nc(Nc1cccc(Cl)c1)c1ccncc12  cell viability             101
3  CC1(C)O[C@@H]2C[C@H]3[C@@H]4CCC5=CC(=O)CC[C@]5(C)[C@@]4(F)[C@@H](O)C[C@]3(C)[C@]2(C(=O)CCl)O1 [halcinonide]  cell viability             103
4                          CN(C)CCCCSC(=N)N  cell viability            92.8
5  O=S(=O)(c1cccc2c(O)nccc12)N1CCCNCC1 [hydroxyfasudil]  cell viability             101

Consider now this further compound.
Value lookup for cell viability; key = Cc1nnc(C(C)C)n1C1C[C@H]2CC[C@@H](C1)N2CC[C@H](NC(=O)C1CCC(F)(F)CC1)c1ccccc1 (stereo in doubt)
95.1

----------
Readings of cell viability for the listed molecules
# Tested on: HepG2
# assay.text: cell viability relative to DMSO; higher = less toxic
# test.context: 72 h; 1 nM
Where a name gives a salt, the structure may show the parent alone.
Put down the number, then write its unit next to it.

Use these answered entries as a reference point.
> print(dat)
                                   molecule  system.name  result
1  CC(c1cc2ccccc2s1)N(O)C(N)=O (stereo not given)        HepG2    109%
2  CCCc1c(OCCCOc2ccc(OCC(=O)O)cc2)ccc(C(C)=O)c1O        HepG2    102%
3  CCC/C=C1\OC(=O)C2=C1CCC=C2 [ligustilide]        HepG2    106%
4  CO/N=C(\C(=O)N[C@@H]1C(=O)N2C(C(=O)O)=C(CSC(=O)c3ccco3)CS[C@H]12)c1csc(N)n1 [CEFTIOFUR HYDROCHLORIDE]        HepG2    106%
5             CCc1ccc(/C=C2/SC(=S)NC2=O)cc1        HepG2   98.2%

Any idea what cell viability was measured for COc1ccccc1N1CCN(CCn2c(=O)[nH]c3c([nH]c4ccccc43)c2=O)CC1 ?
102%

Quick check: cell viability of O=C1c2ccc(Nc3ccc(F)cc3F)cc2CCc2ccc(OC[C@H](O)CO)cc21 [skepinone-L] ?
102%

Would you mind telling me what cell viability value was observed for COc1ccc(S(=O)(=O)N2CCCN(S(=O)(=O)c3ccc(OC)c(OC)c3)CC2)cc1OC ?
99.3%

Tell me the measured cell viability of CC1(C)S[C@@H]2[C@H](N3C(=O)[C@@H](c4ccccc4)NC3(C)C)C(=O)N2[C@H]1C(=O)O , please.
95.6%

Need cell viability of C[C@H]1COC2=C1C(=O)C(=O)c1c2ccc2c1CCCC2(C)C , thanks.
97.3%

Sample O=S(=O)(c1cccc2c(O)nccc12)N1CCCNCC1 [hydroxyfasudil] — what was its cell viability?
96.6%

Would you mind telling me what cell viability value was observed for CC(=O)N1N=C(c2ccc(N)cc2)c2cc3c(cc2C[C@H]1C)OCO3 ?
101%

May I ask what cell viability has been recorded for CC(=O)[C@H]1CC[C@H]2[C@@H]3CC=C4C[C@@H](O)CC[C@]4(C)[C@H]3CC[C@]12C ?
98.9%

Request the reported cell viability associated with CCn1c(=O)[nH]c2ccccc21
96.7%

Entry C[C@@H]([C@@H](O)c1ccc(O)cc1)N1CCC(O)(c2ccccc2)CC1 : reported cell viability = ?
98.1%

Name the recorded cell viability for Cc1nc(Nc2cnn(C3CCNCC3)c2)nc2c1N(C)C(=O)c1cc3ccccc3cc1N2C .
106%

Which value of cell viability has been reported for COc1cc(N2CCN(C)CC2)ccc1Nc1nccc(-c2cn(C)c3cnccc23)n1 in the records?
97.3%

Any idea what cell viability was measured for C[C@@H]1NC(C)(C)CO[C@@]1(O)c1cccc(Cl)c1 ?
98.3%

Which cell viability reading was recorded for the molecule CC(C)c1cc(C(C)C)c(CC(=O)NS(=O)(=O)Oc2c(C(C)C)cccc2C(C)C)c(C(C)C)c1 ?
102%

# query: cell viability of entry CC1(C)C(/C=C/C=C/C=C/C=C2\N(CCCCS(=O)(=O)O)c3ccc4ccccc4c3C2(C)C)=[N+](CCCCS(=O)(=O)[O-])c2ccc3ccccc3c21
93.1%
